Listed next: entries and their corresponding pIC50.
# target-entity: human sAC (Homo sapiens)
# Construct: made in house
# Sequence (Q96PN6 1-469 limits assumed): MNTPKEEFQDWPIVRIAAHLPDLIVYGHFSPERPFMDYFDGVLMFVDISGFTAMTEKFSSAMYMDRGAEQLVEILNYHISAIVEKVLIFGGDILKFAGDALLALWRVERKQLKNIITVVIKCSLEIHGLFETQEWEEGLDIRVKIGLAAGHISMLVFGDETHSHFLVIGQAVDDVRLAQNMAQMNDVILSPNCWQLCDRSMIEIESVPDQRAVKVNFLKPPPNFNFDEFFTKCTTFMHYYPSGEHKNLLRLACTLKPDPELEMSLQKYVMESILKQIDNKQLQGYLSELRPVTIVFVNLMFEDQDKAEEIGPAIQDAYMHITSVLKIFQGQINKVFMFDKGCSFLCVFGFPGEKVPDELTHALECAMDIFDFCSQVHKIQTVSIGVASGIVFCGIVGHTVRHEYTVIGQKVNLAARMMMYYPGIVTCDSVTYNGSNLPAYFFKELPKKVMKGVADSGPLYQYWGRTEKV
# assay-notes: in vitro adenylyl cyclase assay with purified human sAC protein (cAMP by Correlate-EIA)
# Assay type: biochemical
# condition-parameters: stimulated activity of human sAC in vitro (calcium and bicarbonate stimulated); read-out: hsACt-Stim. approximate IC50 (or the dose range where the IC50 should lie)
pIC50: −log10 of the molar value.

compound	target-entity	test-readout	recorded-value
COc1cc(/C(C)=N\NC(=O)CSc2nc3ccccc3[nH]2)ccc1O	human sAC (Homo sapiens)	pIC50	< 4.00
O=C(CSc1nc2ccccc2[nH]1)NCCc1ccccc1	human sAC (Homo sapiens)	pIC50	< 4.00
O=C(CSc1nc2ccccc2[nH]1)N/N=C/c1ccc(Cl)c([N+](=O)[O-])c1	human sAC (Homo sapiens)	pIC50	< 4.00
CC(C)c1ccc(/C=N/NC(=O)CSc2nc3ccccc3[nH]2)cc1	human sAC (Homo sapiens)	pIC50	< 4.00
O=C(CSc1nc2ccccc2[nH]1)N/N=C/c1cc(Br)cc(Br)c1O	human sAC (Homo sapiens)	pIC50	6.00
O=C(CSc1nc2ccccc2[nH]1)N/N=C/c1cccc(F)c1	human sAC (Homo sapiens)	pIC50	< 4.00

**Query** What measured pIC50 goes with "C/C(=N/NC(=O)CSc1nc2ccccc2[nH]1)c1ccc(-c2ccccc2)cc1" ?
**Result** 4.00 to 5.00

**Query** Thanks! And "O=C(CSc1nc2ccccc2n1Cc1ccccc1)N/N=C/c1cc(Br)ccc1O" ?
**Result** 6.00

**Query** Thanks! And "O=C(CSc1nc2ccccc2[nH]1)N/N=C/c1cc(Br)ccc1O" ?
**Result** 4.00 to 5.00

**Query** Thanks! And "C/C(=N/NC(=O)CSc1nc2ccccc2[nH]1)c1cccc(Br)c1" ?
**Result** 4.00 to 5.00

**Query** Thanks! And "O=C(CSc1nc2ccccc2[nH]1)N/N=C/c1ccccc1C(=O)O" ?
**Result** < 4.00

**Query** Thanks! And "COc1ccc(/C=N/NC(=O)CSc2nc3ccccc3[nH]2)cc1" ?
**Result** < 4.00
